Cited source: ChEMBL document CHEMBL1137052

Experiment: Metabolic clearance in guinea pig liver microsomes
Format: ADME, Cavia porcellus, Microsome
Details: read-out: Clearance
measurement-kind: microsomal CLint (µL/min/mg)

1. NC(=O)N(O)CCC#Cc1ccc(OCCN2CCC(=C3c4ccc(Cl)cc4CCc4cccnc43)CC2)cc1 : 105
2. NC(=O)N(O)CCC#Cc1ccc(OCCCN2CCN([C@H](c3ccccc3)c3ccc(Cl)cc3)CC2)cc1 : 99

a. NC(=O)N(O)CCC#Cc1ccc(OCCN2CCN([C@H](c3ccccc3)c3ccc(Cl)cc3)CC2)cc1
b. NC(=O)N(O)CCC#Cc1ccc(OCCCCN2CCN(C(c3ccc(F)cc3)c3ccc(F)cc3)CC2)cc1
Request: Recorded microsomal CLint values differ for a and b ; which one is higher? State the label of the item chosen.
Result: b
(b: 111 µL/min/mg, a: 19 µL/min/mg)

----------
Target: Polyunsaturated fatty acid 5-lipoxygenase (Homo sapiens, UniProt P09917)
Sequence (P09917 whole entry): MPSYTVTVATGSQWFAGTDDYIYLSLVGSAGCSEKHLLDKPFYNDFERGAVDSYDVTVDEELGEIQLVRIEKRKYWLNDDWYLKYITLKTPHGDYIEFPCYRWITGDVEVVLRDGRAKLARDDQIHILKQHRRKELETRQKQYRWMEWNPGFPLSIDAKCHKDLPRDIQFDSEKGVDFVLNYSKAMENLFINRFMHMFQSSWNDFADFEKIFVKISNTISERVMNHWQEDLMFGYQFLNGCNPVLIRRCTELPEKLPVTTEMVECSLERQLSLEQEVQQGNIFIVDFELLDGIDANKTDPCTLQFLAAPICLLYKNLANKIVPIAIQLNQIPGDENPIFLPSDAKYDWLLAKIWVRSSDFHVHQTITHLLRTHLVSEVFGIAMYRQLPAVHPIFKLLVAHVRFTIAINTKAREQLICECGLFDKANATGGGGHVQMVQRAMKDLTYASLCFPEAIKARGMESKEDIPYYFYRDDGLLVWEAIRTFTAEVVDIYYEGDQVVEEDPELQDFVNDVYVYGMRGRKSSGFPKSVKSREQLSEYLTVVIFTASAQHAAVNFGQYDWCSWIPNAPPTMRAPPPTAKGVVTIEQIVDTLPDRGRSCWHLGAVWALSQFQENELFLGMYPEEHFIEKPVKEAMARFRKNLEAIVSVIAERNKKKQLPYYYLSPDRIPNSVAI
Assay: Inhibition of 5-lipoxygenase activity in human whole blood assay
pIC50: −log10 of the molar value.
measurement-kind: pIC50

Past entries and their recorded results:
1) NC(=O)N(O)CCC#Cc1ccc(OCCN2CCN([C@H](c3ccccc3)c3ccc(Cl)cc3)CC2)cc1 : 6.67
2) NC(=O)N(O)CCC#Cc1ccc(OCCCN2CCC(=C3c4ccc(Cl)cc4CCc4cccnc43)CC2)cc1 : 6.71
3) NC(=O)N(O)CCC#Cc1ccc(OCCCN2CCN([C@H](c3ccccc3)c3ccc(Cl)cc3)CC2)cc1 : 7.02

1. NC(=O)N(O)CCC#Cc1ccc(OCCCCN2CCN([C@H](c3ccccc3)c3ccc(Cl)cc3)CC2)cc1
2. NC(=O)N(O)CCC#Cc1ccc(OCCN2CCC(=C3c4ccc(Cl)cc4CCc4cccnc43)CC2)cc1
Request: Recorded pIC50 values differ for 1 and 2 ; which one is higher? State the label of the item chosen.
Result: 1
(1: 7.17, 2: 6.73)

a. NC(=O)N(O)CCC#Cc1ccc(OCCCCN2CCN(C(c3ccc(F)cc3)c3ccc(F)cc3)CC2)cc1
b. NC(=O)N(O)CCC#Cc1ccc(OCCN2CCN(C(c3ccc(F)cc3)c3ccc(F)cc3)CC2)cc1
Request: Recorded pIC50 values differ for a and b ; which one is higher? State the label of the item chosen.
Result: b
